Assay: human hepatoma cell viability loss – ATP luminescence, cytotoxicity control for P. falciparum antimalarial project, primary screen (AID 2303);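 further: 0% = DMSO wells and 100% = digitonin-killed cells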
Conditions: HepG2 viability, 24-48 h, at 10 µM, hits give high values
MEASURE NAME: inhibition (%)
Give the number; % is assumed, so skip it.

# count of solved cases: 4
MOLECULE	MEASUREMENT
Cc1cccc2[nH]c(-c3cccc(-c4cccc(CNCc5cccc(N)c5)c4)c3)nc12	14
COc1cc(Nc2nccc(N3CCC(NC(=O)C(C)c4ccc(Cl)cc4)C3)n2)cc(OC)c1OC (stereo not given)	2
Cc1cccc(-c2nc(Nc3ccncc3)c3ccc([N+](=O)[O-])cc3n2)n1	-9
OCc1c(Cl)cc(Cl)cc1CNCCCNc1nc2ccccc2[nH]1	-6

Proceed to the following item.
Query block: Output measured inhibition for this item: Cc1cccc2[nH]c(-c3ccc(-c4cccc(CNCCCN5CCCC5=O)c4)cc3)nc12
Result block: 6
